target: UniProt:P05177; details: human, microsomes, pH 7.4
Sequence (P05177 whole entry): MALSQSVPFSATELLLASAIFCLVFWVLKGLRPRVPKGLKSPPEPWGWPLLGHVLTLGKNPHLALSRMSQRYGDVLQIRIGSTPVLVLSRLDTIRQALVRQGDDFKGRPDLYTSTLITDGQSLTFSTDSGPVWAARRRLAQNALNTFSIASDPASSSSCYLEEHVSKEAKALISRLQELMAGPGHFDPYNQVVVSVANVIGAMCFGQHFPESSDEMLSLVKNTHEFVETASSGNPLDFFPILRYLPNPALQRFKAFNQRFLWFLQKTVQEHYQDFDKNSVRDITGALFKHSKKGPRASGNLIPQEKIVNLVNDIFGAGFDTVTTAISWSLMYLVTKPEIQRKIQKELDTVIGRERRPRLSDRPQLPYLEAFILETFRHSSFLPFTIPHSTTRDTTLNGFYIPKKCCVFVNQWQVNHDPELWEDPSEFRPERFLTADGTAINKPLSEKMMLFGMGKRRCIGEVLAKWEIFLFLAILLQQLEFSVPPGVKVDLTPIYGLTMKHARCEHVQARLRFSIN
VALUE_TYPE: pIC50
One number for each entry, as −log10 of the molar value.

Quick note, pIC50 for O=C(O)c1cc(-c2ccc(/C=C3\SC(=S)N(CCc4ccccc4)C3=O)o2)ccc1Cl [Compound 1] landed at 5.13

###

assay: in vitro; details: human
VALUE_TYPE: CC50

Here are 4 compounds together with their reported answers.
O=C(O)c1cccc(-c2ccc(/C=C3\SC(=S)N(C4CCCCC4)C3=O)o2)c1 | > 100 µM
CN1C(=O)/C(=C/c2ccc(-c3cccc(C(=O)O)c3)o2)SC1=S | > 100 µM
O=C(O)c1cc(-c2ccc(/C=C3\SC(=S)N(C4CCCCC4)C3=O)o2)ccc1Cl | > 100 µM
CCN1C(=O)/C(=C/c2ccc(-c3ccc(Cl)c(C(=O)O)c3)o2)SC1=S | ~100 µM

Turning now to a further compound:
Quick note, CC50 for C=CCN1C(=O)/C(=C/c2ccc(-c3cccc(C(=O)O)c3C)o2)SC1=S landed at 84 µM

###

tested on: MERS-CoV pseudovirus; assay: microbe, parasite or virus in culture; type: cell-based; details: Middle East respiratory syndrome-related coronavirus, Huh-7
Give measured IC50 for each item. Keep answers brief.
One number for each entry, in nM.

Here are 5 molecules together with their reported answers.
CCN1C(=O)/C(=C/c2ccc(-c3ccc(Cl)c(C(=O)O)c3)o2)SC1=S | 88
NS(=O)(=O)c1ccc(-c2ccc(/C=C3\SC(=S)N(CCc4ccccc4)C3=O)o2)cc1 | 13.2
CN1C(=O)/C(=C/c2ccc(-c3cccc(C(=O)O)c3)o2)SC1=S | 96
O=C(O)c1cc(-c2ccc(/C=C3\SC(=S)N(C4CCCCC4)C3=O)o2)ccc1Cl | 10.5
C=CCN1C(=O)/C(=C/c2ccc(-c3cccc(C(=O)O)c3C)o2)SC1=S | 340

Quick note, IC50 for O=C(O)c1cccc(-c2ccc(/C=C3\SC(=S)N(C4CCCCC4)C3=O)o2)c1 landed at 247

###

experiment: in vitro; settings: human
VALUE_TYPE: CC50 (µM)
Give bare numbers, in µM.

O=C(O)c1cc(-c2ccc(/C=C3\SC(=S)N(CCc4ccccc4)C3=O)o2)ccc1F | 45
O=C(O)c1cc(-c2ccc(/C=C3\SC(=S)N(CCc4ccccc4)C3=O)o2)ccc1Cl | 37.5
CCN1C(=O)/C(=C/c2ccc(-c3cccc(C(=O)O)c3)o2)SC1=S | 74

Go through the list and state CC50 for each entry.
1. O=C1/C(=C/c2ccc(-c3ccccc3)o2)SC(=S)N1CCc1ccccc1
2. Cc1ccc(-c2ccc(/C=C3\SC(=S)N(CC(C)C)C3=O)o2)cc1C(=O)O

Result block:
1. 75
2. 68

###

system: SARS-CoV-2 (US_WA-1/2020); format: cell-based
VALUE_TYPE: IC100 (µM)
Answers are plain numbers, in µM.

Here are 5 compounds together with their reported answers.
O=C(O)c1cccc(-c2ccc(/C=C3\SC(=S)N(CCc4ccccc4)C3=O)o2)c1 [Compound 2] | 1.25
Cc1ccc(-c2ccc(/C=C3\SC(=S)N(CCc4ccccc4)C3=O)o2)cc1C(=O)O [Compound 4] | 2.5
O=C(O)c1cc(-c2ccc(/C=C3\SC(=S)N(CCc4ccccc4)C3=O)o2)ccc1F [Compound 3] | 2.5
O=C(O)c1cccc(-c2ccc(/C=C3\SC(=S)N(CCc4ccccc4)C3=O)o2)c1F [Compound 7] | 5
O=C(O)c1cc(-c2ccc(/C=C3\SC(=S)N(CCc4ccccc4)C3=O)o2)ccc1Cl [Compound 1] | 1.25

Go through the list and state IC100 for each entry.
1. O=C(O)c1cc(-c2ccc(/C=C3\SC(=S)N(CCc4ccccc4)C3=O)o2)ccc1Br [Compound 8]
2. Cc1c(C(=O)O)cncc1-c1ccc(/C=C2\SC(=S)N(CCc3ccccc3)C2=O)o1 [Compound 9]

Result block:
5
2.5

###

experiment: in vivo; settings: female, Sprague-Dawley, rat, iv, 5 mg/kg
VALUE_TYPE: half-life

Quick note, half-life for O=C(O)c1cccc(-c2ccc(/C=C3\SC(=S)N(CCc4ccccc4)C3=O)o2)c1 landed at 3.5 to 3.9 h

###

target: UniProtKB P10632; conditions: human, microsomes, pH 7.4
Sequence (P10632 whole entry): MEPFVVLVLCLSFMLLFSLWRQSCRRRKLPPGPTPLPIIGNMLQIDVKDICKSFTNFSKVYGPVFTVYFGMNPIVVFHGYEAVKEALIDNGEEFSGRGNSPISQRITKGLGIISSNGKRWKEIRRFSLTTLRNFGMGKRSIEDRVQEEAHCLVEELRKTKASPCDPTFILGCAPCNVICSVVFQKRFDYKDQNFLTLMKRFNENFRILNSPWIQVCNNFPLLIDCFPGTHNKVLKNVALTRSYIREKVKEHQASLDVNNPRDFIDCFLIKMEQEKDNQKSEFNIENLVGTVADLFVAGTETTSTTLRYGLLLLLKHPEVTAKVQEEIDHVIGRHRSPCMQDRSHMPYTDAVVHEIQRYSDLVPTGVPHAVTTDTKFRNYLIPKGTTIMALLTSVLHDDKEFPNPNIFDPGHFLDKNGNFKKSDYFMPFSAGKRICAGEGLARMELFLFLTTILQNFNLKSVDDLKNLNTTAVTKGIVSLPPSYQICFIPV
VALUE_TYPE: pIC50
Numbers only, as −log10 of the molar value.

Quick note, pIC50 for O=C(O)c1cc(-c2ccc(/C=C3\SC(=S)N(CCc4ccccc4)C3=O)o2)ccc1Cl [Compound 1] landed at 5.68

###

Give measured CC50 for each item. Keep answers brief.
test: in vitro; details: human
One number for each entry, in µM.

COCCN1C(=O)/C(=C/c2ccc(-c3ccc(Cl)c(C(=O)O)c3)o2)SC1=S | 81
CCN1C(=O)/C(=C/c2ccc(-c3ccc(Cl)c(C(=O)O)c3)o2)SC1=S | 78

Turning now to a further compound:
Quick note, CC50 for CCc1ccc(-c2ccc(/C=C3\SC(=S)N(CCc4ccccc4)C3=O)o2)cc1C(=O)O landed at 40

###

target: CYP2C9 (Homo sapiens, UniProt P11712); conditions: human, microsomes, pH 7.4
Sequence (P11712 whole entry): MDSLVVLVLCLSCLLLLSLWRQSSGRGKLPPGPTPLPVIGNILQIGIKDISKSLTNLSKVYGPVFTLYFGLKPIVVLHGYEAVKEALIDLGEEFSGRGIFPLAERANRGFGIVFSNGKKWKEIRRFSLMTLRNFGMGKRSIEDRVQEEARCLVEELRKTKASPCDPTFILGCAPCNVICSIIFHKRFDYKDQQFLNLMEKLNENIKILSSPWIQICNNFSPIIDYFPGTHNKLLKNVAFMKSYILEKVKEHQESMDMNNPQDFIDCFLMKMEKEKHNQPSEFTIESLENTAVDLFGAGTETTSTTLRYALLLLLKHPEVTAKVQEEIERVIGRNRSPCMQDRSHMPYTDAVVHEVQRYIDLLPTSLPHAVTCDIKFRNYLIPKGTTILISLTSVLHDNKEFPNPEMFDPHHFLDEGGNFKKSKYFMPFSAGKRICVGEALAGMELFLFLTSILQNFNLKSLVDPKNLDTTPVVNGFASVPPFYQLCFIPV
VALUE_TYPE: pIC50
Numbers only, as −log10 of the molar value.

Quick note, pIC50 for O=C(O)c1cc(-c2ccc(/C=C3\SC(=S)N(CCc4ccccc4)C3=O)o2)ccc1Cl landed at 5.30

###

Give measured AUC(0-t) for each item. Keep answers brief.
assay: in vivo; details: female, Sprague Dawley, rat, po, 10 mg/kg
Numbers only, in ng·h/mL.

O=C(O)c1cc(-c2ccc(/C=C3\SC(=S)N(CCc4ccccc4)C3=O)o2)ccc1Cl [Compound 1] | 12000

Turning now to a further compound:
Quick note, AUC(0-t) for O=C(O)c1cccc(-c2ccc(/C=C3\SC(=S)N(CCc4ccccc4)C3=O)o2)c1 [Compound 2] landed at 319

###

Give measured CC50 for each item. Keep answers brief.
assay: in vitro; conditions: human

CCN1C(=O)/C(=C/c2ccc(-c3ccc(Cl)c(C(=O)O)c3)o2)SC1=S | > 100 µM
O=C1NC(=S)S/C1=C\c1ccc(-c2ccc(C(=O)O)c(Cl)c2)o1 | > 100 µM
COCCN1C(=O)/C(=C/c2ccc(-c3ccc(Cl)c(C(=O)O)c3)o2)SC1=S | > 100 µM
O=C(O)c1cccc(-c2ccc(/C=C3\SC(=S)N(C4CCCCC4)C3=O)o2)c1 | > 100 µM
C=CCN1C(=O)/C(=C/c2ccc(-c3cccc(C(=O)O)c3)o2)SC1=S | > 100 µM
O=C(O)c1cc(-c2ccc(/C=C3\SC(=S)N(C4CCCCC4)C3=O)o2)ccc1Cl | > 100 µM
Cc1ccc(-c2ccc(/C=C3\SC(=S)N(CC(C)C)C3=O)o2)cc1C(=O)O | 70 µM
C=CCN1C(=O)/C(=C/c2ccc(-c3cc(C(=O)O)cc(C(=O)O)c3)o2)SC1=S | > 100 µM
O=C1/C(=C/c2ccc(-c3ccccc3)o2)SC(=S)N1CCc1ccccc1 | 40 µM
C=CCN1C(=O)/C(=C/c2ccc(-c3cccc(C(=O)O)c3C)o2)SC1=S | > 100 µM

Go through the list and state CC50 for each entry.
1. CCN1C(=O)/C(=C/c2ccc(-c3cccc(C(=O)O)c3)o2)SC1=S
2. CN1C(=O)/C(=C/c2ccc(-c3cccc(C(=O)O)c3)o2)SC1=S

Result block:
1: > 100 µM; 2: > 100 µM

###

biological target: UniProt:P33261; details: human, microsomes, pH 7.4
Sequence (P33261 whole entry): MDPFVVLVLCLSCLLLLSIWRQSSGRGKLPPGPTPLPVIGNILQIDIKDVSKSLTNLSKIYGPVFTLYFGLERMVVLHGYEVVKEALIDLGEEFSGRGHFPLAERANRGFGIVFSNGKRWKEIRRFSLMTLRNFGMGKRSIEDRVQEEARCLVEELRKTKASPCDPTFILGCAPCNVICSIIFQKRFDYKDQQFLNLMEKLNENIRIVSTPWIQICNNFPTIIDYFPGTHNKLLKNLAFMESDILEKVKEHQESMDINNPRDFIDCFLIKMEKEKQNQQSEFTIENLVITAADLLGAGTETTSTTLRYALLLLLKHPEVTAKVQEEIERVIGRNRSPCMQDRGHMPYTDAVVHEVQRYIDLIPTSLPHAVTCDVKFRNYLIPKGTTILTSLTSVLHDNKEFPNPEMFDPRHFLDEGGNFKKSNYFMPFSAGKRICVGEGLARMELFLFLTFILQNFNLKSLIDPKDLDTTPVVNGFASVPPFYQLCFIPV
VALUE_TYPE: IC50 (µM)
Give bare numbers, in µM.

Quick note, IC50 for O=C(O)c1cc(-c2ccc(/C=C3\SC(=S)N(CCc4ccccc4)C3=O)o2)ccc1Cl [Compound 1] landed at 7.31

###

experiment: in vitro; conditions: human
Give measured CC50 for each item. Keep answers brief.

Here are 2 compounds together with their reported answers.
N=C1NC(=O)/C(=C/c2ccc(-c3ccc(Cl)c(C(=O)O)c3)o2)S1 | > 100 µM
C=CCN1C(=O)/C(=C/c2ccc(-c3cc(C(=O)O)cc(C(=O)O)c3)o2)SC1=S | > 100 µM

Turning now to a further compound:
Quick note, CC50 for C=CCN1C(=O)/C(=C/c2ccc(-c3cccc(C(=O)O)c3C)o2)SC1=S landed at > 100 µM

Source listed as patent US20220348569A1.
